- method-summary: qHTS assay to identify small molecule agonists of the farnesoid-X-receptor (FXR) signaling pathway - cell viability counter screen (AID 743218); also: nearly all actives have a fitted effect of over 45% in size
- measurement-context: FXR-bla HEK293T viability, CellTiter-Glo luminescence, 16 h; series mostly up to 62.6 µM
Results filed as inconclusive are left out. Calls of active or inactive are those of the source. Calls follow the shape of the dose curve; as a rule, active = well fitted cell-killing curve with a large enough effect in the repeat runs; inconclusive = weak or mixed curves, or effect the other way; inactive = no such curve, though single readings can be large or run the other way.
experimental-endpoint: outcome

{"compound": "CNc1ccccc1", "measurement": "inactive"}
{"compound": "Cc1cc(C)n(CO)n1", "measurement": "inactive"}
{"compound": "CCCCCO", "measurement": "inactive"}
{"compound": "O=C(O)c1ccc2cc(O)ccc2c1", "measurement": "inactive"}
{"compound": "CCCc1ccc(OC)cc1", "measurement": "inactive"}
{"compound": "CCCCCCCCCC(C)C=O (stereo not drawn)", "measurement": "inactive"}
{"compound": "Nc1ccccc1Nc1ccccc1", "measurement": "inactive"}
{"compound": "CCOc1ccc2c(c1)C(C)CC(C)(C)N2 (stereo not drawn)", "measurement": "inactive"}

Can you look up the measured outcome of CC(C)=CCC[C@H](C)CCO for me?
inactive

I am curious: what outcome value has been reported for CCCOC(C)=O ?
inactive

# query: outcome of entry COc1ccc(CN(CCN(C)C)c2ncccn2)cc1
inactive

Look at this compound and give its reported outcome. CCCCCCCCCCCCSCCOCCO
inactive

Can you look up the measured outcome of CCC(CC)C(=O)O for me?
inactive
